Biological target: p50 S337D (Mus musculus, UniProt P25799 39-364, S335D)
Sequence (P25799 39-364 S335D): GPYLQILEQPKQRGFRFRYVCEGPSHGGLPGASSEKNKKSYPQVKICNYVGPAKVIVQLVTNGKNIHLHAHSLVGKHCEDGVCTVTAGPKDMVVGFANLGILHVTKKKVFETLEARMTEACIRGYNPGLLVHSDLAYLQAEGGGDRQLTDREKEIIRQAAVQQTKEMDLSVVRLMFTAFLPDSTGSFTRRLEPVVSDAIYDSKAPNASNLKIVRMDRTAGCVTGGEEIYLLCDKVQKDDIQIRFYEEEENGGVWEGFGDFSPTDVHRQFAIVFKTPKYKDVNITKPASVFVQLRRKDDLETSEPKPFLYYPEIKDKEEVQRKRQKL
Assay: native MS titration; KD: 3 uM p50 with 0.2-6 uM DNA in 300 mM NH4OAc, 5 min, room temperature, 10 uL, pH not stated; native nESI-(IM-)MS
Settings: protein: recombinant; tags: His6-MBP removed by 3C protease; chain copies: 2; blunt; strand is self-complementary
property: Kd

>>> measured_value("kB DNA oligomer (KD determination) (dsDNA) DNA 1: CCCCCGGGGGCCCCCGGGGG DNA 2: CCCCCGGGGGCCCCCGGGGG")
"111 nM"
